# System: μ opioid receptor (PL017) in GPI
# experimental.protocol: Antagonist activity against PL-017 in electrically stimulated guinea pig ileum (GPI)
# Assay type: cell-based
# assay.conditions: 1 μM compound, 30 min incubation; IC50 of PL-017 with antagonist divided by control IC50
Could you mark each record 1 if its antagonist activity PL017 (μ) GPI IC50 ratio falls strictly under 40, and -1 if it equals or exceeds it?

NC(=O)c1c(N)sc2c1[C@@H]1Oc3c(O)ccc4c3[C@@]13CCN(CC1CC1)[C@H](C4)[C@]3(O)C2 [Compound 8e] ... -1
N#Cc1c(N)sc2c1[C@@H]1Oc3c(O)ccc4c3[C@@]13CCN(CC1CC1)[C@H](C4)[C@]3(O)C2 [Compound 8a] ... -1
Nc1cnc2c(c1)C[C@@]1(O)[C@H]3Cc4ccc(O)c5c4[C@@]1(CCN3CC1CC1)[C@H]2O5 [Compound 7f] ... 1
CCOC(=O)c1c(N)sc2c1[C@@H]1Oc3c(O)ccc4c3[C@@]13CCN(CC1CC1)[C@H](C4)[C@]3(O)C2 [Compound 8c] ... -1
N#Cc1cnc2c(c1)CC1(O)C3Cc4ccc(O)c5c4C1(CCN3CC1CC1)C2O5 (stereo not drawn) [Compound 7c] ... 1
Nc1sc2c(c1C(=O)c1ccccc1)[C@@H]1Oc3c(O)ccc4c3[C@@]13CCN(CC1CC1)[C@H](C4)[C@]3(O)C2 [Compound 8f] ... 1
Oc1ccc2c3c1OC1c4ncc(Br)cc4CC4(O)C(C2)N(CC2CC2)CCC314 (stereo not drawn) [Compound 7b] ... -1

Please examine the following record next.
Is 40 strictly greater than the compound's reported antagonist activity PL017 (μ) GPI IC50 ratio? compound: O=[N+]([O-])c1cnc2c(c1)CC1(O)C3Cc4ccc(O)c5c4C1(CCN3CC1CC1)C2O5 (stereo not drawn) [Compound 7e]
1

###

Examples of compounds with documented Selectivity Ratio μ/δ follow.
# tgt: δ opioid receptor (Rattus norvegicus)
# Sequence (P33533 whole entry): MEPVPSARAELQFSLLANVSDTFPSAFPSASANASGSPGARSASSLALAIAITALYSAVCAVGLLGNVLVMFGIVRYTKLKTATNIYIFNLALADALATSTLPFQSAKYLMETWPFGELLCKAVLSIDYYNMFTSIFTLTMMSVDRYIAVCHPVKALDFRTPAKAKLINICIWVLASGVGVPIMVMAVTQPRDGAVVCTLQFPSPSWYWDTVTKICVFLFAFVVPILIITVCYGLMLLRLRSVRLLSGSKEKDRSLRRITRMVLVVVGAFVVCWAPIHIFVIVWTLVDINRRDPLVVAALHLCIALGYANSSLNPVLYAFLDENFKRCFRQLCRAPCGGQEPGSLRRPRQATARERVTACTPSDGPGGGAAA
# experimental.protocol: Radioligand binding, delta sites, displacement of [3H]DADLE in rat brain membranes
# Parameters: Rat membranes were prepared each day using a partially thawed frozen rat brain; from tissue; host or cells: rat brain membranes
# assay.conditions: thienomorphinans; ratio of Ki values
Keep it simple and answer with nothing but the number.

Nc1sc2c(c1C(=O)OCc1ccccc1)[C@@H]1Oc3c(O)ccc4c3[C@@]13CCN(CC1CC1)[C@H](C4)[C@]3(O)C2 [Compound 8d] ... 8.7
CCOC(=O)c1c(N)sc2c1[C@@H]1Oc3c(O)ccc4c3[C@@]13CCN(CC1CC1)[C@H](C4)[C@]3(O)C2 [Compound 8c] ... 4.0
Nc1sc2c(c1C(=O)c1ccccc1)[C@@H]1Oc3c(O)ccc4c3[C@@]13CCN(CC1CC1)[C@H](C4)[C@]3(O)C2 [Compound 8f] ... 3.6
NC(=O)c1c(N)sc2c1[C@@H]1Oc3c(O)ccc4c3[C@@]13CCN(CC1CC1)[C@H](C4)[C@]3(O)C2 [Compound 8e] ... 5.7
COC(=O)c1c(N)sc2c1[C@@H]1Oc3c(O)ccc4c3[C@@]13CCN(CC1CC1)[C@H](C4)[C@]3(O)C2 [Compound 8b] ... 4.4

Field: next compound
Quick one: Selectivity Ratio μ/δ for N#Cc1c(N)sc2c1[C@@H]1Oc3c(O)ccc4c3[C@@]13CCN(CC1CC1)[C@H](C4)[C@]3(O)C2 [Compound 8a] ?
2.1

Source of measurements: patent US7105675B2
